# System Name: UGT2B7 (Homo sapiens, UniProt P16662)
# Sequence (P16662 24-529): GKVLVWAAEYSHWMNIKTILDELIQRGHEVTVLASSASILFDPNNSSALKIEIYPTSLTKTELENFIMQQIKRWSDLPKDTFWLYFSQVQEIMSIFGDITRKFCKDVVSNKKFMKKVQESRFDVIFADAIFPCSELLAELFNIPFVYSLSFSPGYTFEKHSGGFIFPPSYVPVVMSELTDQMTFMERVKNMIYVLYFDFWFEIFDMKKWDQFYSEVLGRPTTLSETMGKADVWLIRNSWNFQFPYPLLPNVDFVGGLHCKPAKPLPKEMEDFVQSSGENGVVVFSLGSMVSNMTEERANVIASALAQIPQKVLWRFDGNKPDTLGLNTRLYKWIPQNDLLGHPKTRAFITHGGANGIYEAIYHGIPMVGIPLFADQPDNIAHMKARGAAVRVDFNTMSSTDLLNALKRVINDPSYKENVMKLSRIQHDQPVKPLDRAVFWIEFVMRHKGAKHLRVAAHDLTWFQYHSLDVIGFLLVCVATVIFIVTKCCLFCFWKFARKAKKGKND
# Assay Summary: Inhibition of UGT2B7 (zidovudine-N-glucuronidation)
# Run Conditions: UGT2B7; substrate AZT
Property Label: pKi
One number for each entry, as −log10 of the molar value.

Query: Report pKi for CC(C)=CCc1c(O)ccc2c1O[C@H](c1ccc(O)cc1)CC2=O [Isobavachin, isobavachin] please.
Response: 7.70

----------
# System Name: UGT2B7 (Homo sapiens, UniProt P16662)
# Assay Summary: Inhibition of UGT2B7 (zidovudine-N-glucuronidation)
pKi: −log10 of the molar value.
Classification field: Criterion met = pKi at or over 6; Criterion not met = pKi under 6.

Query: In plain terms: is recorded pKi at least 6 for `CC(C)=CCc1cc2c(cc1O)O[C@H](c1ccc(O)cc1)CC2=O` ?
Response: Criterion met

Query: In plain terms: is recorded pKi at least 6 for `CC(C)=CCc1cc(C(=O)/C=C/c2ccc(O)cc2)c(O)cc1O` ?
Response: Criterion not met

Query: In plain terms: is recorded pKi at least 6 for `CC(C)=CCc1c(O)ccc(C(=O)/C=C/c2ccc(O)cc2)c1O` ?
Response: Criterion met

Query: In plain terms: is recorded pKi at least 6 for `CC(C)=CCC/C(C)=C/Cc1cc(-c2coc3cc(O)ccc3c2=O)ccc1O` ?
Response: Criterion met

Query: In plain terms: is recorded pKi at least 6 for `CC(C)=CCc1cc(-c2coc3cc(O)ccc3c2=O)ccc1O` ?
Response: Criterion met

----------
# System Name: UGT1A10 (Homo sapiens, UniProt Q9HAW8)
# Sequence (Q9HAW8 26-530): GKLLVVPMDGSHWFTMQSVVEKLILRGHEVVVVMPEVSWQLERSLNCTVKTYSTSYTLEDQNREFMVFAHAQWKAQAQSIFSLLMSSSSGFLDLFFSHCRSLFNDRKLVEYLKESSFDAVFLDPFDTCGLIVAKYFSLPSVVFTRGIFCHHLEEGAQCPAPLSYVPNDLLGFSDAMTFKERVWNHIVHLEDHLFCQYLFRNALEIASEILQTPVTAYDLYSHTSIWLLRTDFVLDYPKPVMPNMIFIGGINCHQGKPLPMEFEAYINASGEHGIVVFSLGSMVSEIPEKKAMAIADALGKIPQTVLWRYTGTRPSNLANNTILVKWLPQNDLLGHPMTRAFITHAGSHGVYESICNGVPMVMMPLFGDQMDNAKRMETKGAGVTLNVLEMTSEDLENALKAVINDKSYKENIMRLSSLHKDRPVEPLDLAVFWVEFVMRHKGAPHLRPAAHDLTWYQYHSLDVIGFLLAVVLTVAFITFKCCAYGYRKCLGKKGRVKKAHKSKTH
# Assay Summary: Inhibition of UGT1A10 (4-methylumbelliferone-O-glucuronidation)
Rule: measured IC50 below 4 µM gets satisfied; anything equal to or greater than 4 µM gets not satisfied.

Worked examples, 5 compounds total:
compound=CC(C)=CCc1c(O)ccc2c1O[C@H](c1ccc(O)cc1)CC2=O class=satisfied
compound=CC(C)=CCC/C(C)=C/Cc1cc(-c2coc3cc(O)ccc3c2=O)ccc1O class=satisfied
compound=COc1ccc(-c2oc3c(CC=C(C)C)c(O[C@@H]4O[C@H](CO)[C@@H](O)[C@H](O)[C@H]4O)cc(O)c3c(=O)c2O[C@@H]2O[C@@H](C)[C@H](O)[C@@H](O)[C@H]2O)cc1 class="not satisfied"
compound=CC(C)=CCc1cc2c(cc1O)O[C@H](c1ccc(O)cc1)CC2=O class="not satisfied"
compound=CC(C)=CCc1c(O)ccc(C(=O)/C=C/c2ccc(O)cc2)c1O class=satisfied

Query: Would you kindly verify if IC50 of COc1ccc(-c2oc3c(CC=C(C)C)c(O[C@@H]4O[C@H](CO)[C@@H](O)[C@H](O)[C@H]4O)cc(O)c3c(=O)c2O)cc1 [Icariside I, icariside I] is strictly less than 4 µM?
Response: satisfied
